From: the nanobody polyreactivity screen of Harvey et al. (2022)

TEST SUMMARY: yeast display, Sf9 membrane polyspecificity reagent, FACS + sequencing; frameworks hold sequencing errors

RECORD SEQUENCE: QVQLVESGGGLVQAGGSLRLSCAASGYIFCKYAMGWYRQARGKERELVAGITRGGTTYYADSVKGRFTISRDNAKNTVYLQMNSLKPEVTAVYYCARDLLGVSSSRYNSWGQGTQVTVSS
polyreactivity (PSR sort gate): high polyreactivity

RECORD SEQUENCE: QLQLVESGGGLVQAGGSLRLSCAASGRILRYYTMGWYRQAPGKERELVAAISRSGGGTYYADSVKGRFTISRDNANNTVDIEMYSLIPEDTSVYYCAAYKPSPYSSDYDYWGEGTQVTVSS
polyreactivity (PSR sort gate): high polyreactivity

RECORD SEQUENCE: QVQLVETGGGLFQAGGSLRLSCAASGFIYSYAMGWYRQAPGKERELDAAISRSGGSTYYADSVKGRFTISRDNAKNTVYLQMNSLKPEDTAVYYCAARPNSNRYVRYGYWGQGTQVTVSS
polyreactivity (PSR sort gate): high polyreactivity

RECORD SEQUENCE: QVQLVESGGGLVQAGGSLRLSCASSGRIFGLYAMGWYRQAPGKERELVAAITLSGDGTDYADSVKGRFTISRDNAKNTVYLQMNSLKPEDTAVYYCAKVGQYWWNMDYWGQGTQVTVSS
polyreactivity (PSR sort gate): low polyreactivity

RECORD SEQUENCE: QVQLVESGGGLVQAGGSLRLSCAASGFIFSSYAMGWYRQAPGKERELVAAISRSGGRTNYADSVKGRFTISRDNAKNTVYLQMNSLKPDDTAVYYCNARGRGKYPPYGYDYWGQGTQVTVSS
polyreactivity (PSR sort gate): high polyreactivity

RECORD SEQUENCE: QVQLVESGGGLVQAGGSLRLSCAASGRIFHYYMGWYRQAPGKERELVAVISSGDGTYYADSVKGRFTISRDNAKYTVYLQMNSLKPEDTAVYYCAADAPREYVDHYKYDDDYWGQGTQVTVSS
polyreactivity (PSR sort gate): low polyreactivity

RECORD SEQUENCE: QVQLVESGGGLVQAGGSLRLSCAASGSIFYRNAMGWYRQAPGKERELVAAISSSVSSTYYADSVKGRFTISRDNAKNTVYLQMNSLKPEDTAVYYCAARRVQRGGDYVYRYLYDYWGQGTQVTVSS
polyreactivity (PSR sort gate): low polyreactivity

RECORD SEQUENCE: QVQLVDSGGGLVQAGGILSLSCASSGRTFYRYAMGWYRQAPGKERELVAAISATGCSTYYADSVKGRFTISRDNEKNTGYFQMNIMKPEDSAVDYCARGGTTLYWGQGTQLTVSS
polyreactivity (PSR sort gate): high polyreactivity

RECORD SEQUENCE: QVQLVESGGGLVQAGGSLRLSCAASGRTFFGYAMGWYIQAPGKERELVAAITWNGGRTYYADSVRGRFTISRDNAKNTVYLQMNSLKPEDTAVYYCAARVGDGVRRYNYWGQGTQVTVSS
polyreactivity (PSR sort gate): high polyreactivity

RECORD SEQUENCE: QVQLVESGGGLVQAGGSLRLSCAASGFTLWLYAMGWYRQAPGKERELVATISYRGDSTYYADSVKGRFTISRDNAKNTVYLQMNSLKPEDTAVYYCARRYTHTGRYYYWGQGTQVTVSS
polyreactivity (PSR sort gate): high polyreactivity

RECORD SEQUENCE: QVQLVESGGRLVQAGGSLRLSCAASGFTFSHYAMGWYRQAPGKERELVAAISGRGGSTYYADSVKGRFTISRDNAKNTVYLPMNSLKPEDTAVYYCAARPSTYYTGHDYWGQGTQVTVSS
polyreactivity (PSR sort gate): high polyreactivity

RECORD SEQUENCE: QVQLVESGGGLVQAGGSLRLSCAASGSTFRLNAMGRYRQAPGKERELVAAISRSTGTTHYADSVKGRFTISRDNAKNTVYLQMKSLKPEDTAVYYCATDRAKWHKNGDLGYWGQGTQVTVSS
polyreactivity (PSR sort gate): low polyreactivity

RECORD SEQUENCE: QVQLVESGGGLVQAGGSLRLSCAASGRIFSRYTMGGYRQAPGKERELVAANSYRGGSTYYADSVKGRFTISRDNAKNTVYLQMNSLKPEDTAVYYCAARVQAIYRYDYWGQGTQVTVSS
polyreactivity (PSR sort gate): high polyreactivity

RECORD SEQUENCE: QVQLVESGGALVQAGGSLRLSCAASGSIFSRYTMGWYRQAPGKERELVAAIPSSGGRTYYADSVKGRFTNSRDNAKNTVYLQMNSLKPEDTAVYYCNAGGAYEYDYWGQGTQVTVSS
polyreactivity (PSR sort gate): high polyreactivity

RECORD SEQUENCE: QVQLVESGGGLLQAGGSLRLSCAASGSIFRRNAMGWYRQAPGKERELVAAIRRGGSTNYADSVKGRFTISRDNAKNTVYLQMNSLKPEDTAVYYCAARGGSSGFYYWGQGTQVTVSS
polyreactivity (PSR sort gate): high polyreactivity

RECORD SEQUENCE: QVQLVESGGGLVQAGGSLRLSCAASGSTLLSYTMGWYRQAPGKERELVASITTSGGSTYYADSVKGRFTISRDNAKNTVYLQMNSLKPEDTAVYYWGQGTQVTVSS
polyreactivity (PSR sort gate): low polyreactivity

RECORD SEQUENCE: QVQLVESGGGLVQAGGSLRLSCAASGSIFWSYAMGWYRQAPGKERELVAAITYSGTSTYYADSVKGRFTISRDNAKNTVYLQMNSLKPEDTAVSYCAASPYSRSRYDYWGQGTQVTVSS
polyreactivity (PSR sort gate): low polyreactivity

RECORD SEQUENCE: QVQLVESGGGLVQAGGSLRLSCAASGSIFGEYAMGWYRQAPGKERELVAAITFSTGSTYYADSVKGRFTISRDNAKNTVYLQMNSLKPEDTAVYYCAAESYTYYWYDYEYWGQGTQVTVSS
polyreactivity (PSR sort gate): high polyreactivity

RECORD SEQUENCE: QVQLVESGGGLVQAGGSLRLTCAASGSIFGLYAMGWYRHAPGKERELVAAISRTGGSTYYADSVKGRFTISRDNAKNTVYLQMNSLKPEDTAVYSCNAVYFRYRYNYWGQGTQVTVSS
polyreactivity (PSR sort gate): high polyreactivity

RECORD SEQUENCE: QVQLVESGGGLVQAGGSLRLSCAASGSTFSPYAMGWYRQAPGKERELVAGITSSGGDTYYADSVKGRFTISRDNAKNTVYLQMNSLKPEDTAVYYCAAGLQGYPRKFNYWGQGTQVTVSS
polyreactivity (PSR sort gate): low polyreactivity

RECORD SEQUENCE: QVQLVESGGGLVQAGGSLRLSCAASGFTFLYYTMGWYRQAPGKERELVAAISSGGRTTYADSVKGRFTISRDNAKNTVYLQMNSLKQEDTAVYYCAARYRTLDGEVDYWGQGTQVTVSS
polyreactivity (PSR sort gate): high polyreactivity
